Cited source: patent US20240091368A1

Target: human ACE2 (angiotensin-converting enzyme 2) (human, UniProt Q9BYF1 18-805)
Sequence (Q9BYF1 18-805): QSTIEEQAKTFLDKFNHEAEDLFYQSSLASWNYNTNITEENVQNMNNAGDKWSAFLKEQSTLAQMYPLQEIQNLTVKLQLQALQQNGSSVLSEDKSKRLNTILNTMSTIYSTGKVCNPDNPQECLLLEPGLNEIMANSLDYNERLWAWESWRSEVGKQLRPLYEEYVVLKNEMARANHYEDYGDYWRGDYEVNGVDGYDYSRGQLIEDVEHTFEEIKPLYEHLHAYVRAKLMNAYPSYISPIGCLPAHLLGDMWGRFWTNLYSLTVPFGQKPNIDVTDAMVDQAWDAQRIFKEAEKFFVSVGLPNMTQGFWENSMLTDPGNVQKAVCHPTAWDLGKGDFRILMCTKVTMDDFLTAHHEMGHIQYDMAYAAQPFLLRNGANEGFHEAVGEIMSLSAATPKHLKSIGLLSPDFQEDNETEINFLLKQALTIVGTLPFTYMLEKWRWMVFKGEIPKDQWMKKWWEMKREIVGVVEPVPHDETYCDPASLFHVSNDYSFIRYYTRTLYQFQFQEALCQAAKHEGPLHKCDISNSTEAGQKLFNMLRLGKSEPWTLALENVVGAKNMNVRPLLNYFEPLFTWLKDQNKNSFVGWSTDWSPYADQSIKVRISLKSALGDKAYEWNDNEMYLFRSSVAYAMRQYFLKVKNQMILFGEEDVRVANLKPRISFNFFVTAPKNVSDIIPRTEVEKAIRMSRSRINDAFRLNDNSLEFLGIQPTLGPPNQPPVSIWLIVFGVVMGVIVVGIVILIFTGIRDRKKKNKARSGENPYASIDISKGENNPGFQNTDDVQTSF
Experiment: cell-based or functional assay
Numbered stars: 1 amine (or outer) side, 2 acyl side, 3 side chain; on linkers, the order of the positions; unused ones are H or OH. Bridge positions count the residues as written; N and C are the ends. Square brackets hold non-standard residues; d marks the D form. Ends that are not written are not given here. * marks the point of attachment. TATA = O=C(CC[*:1])N1CN(C(=O)CC[*:2])CN(C(=O)CC[*:3])C1; hArg = N=C(N)NCCCC[C@H](N)C(=O)O; Agb = N=C(N)NCC[C@H](N)C(=O)O; Pent4ynoyl = C#CCCC(=O)*
MEASURED ENDPOINT: Pseudoviral Neutralisation Assay, Geomean IC50 (µM)

{"BINDER": "Ac-CNAVLCSWA[hArg]ANSFCK(Pent4ynoyl) (linker 1-6-15 via TATA; also: tetramer: each monomer attached at C-terminus to central hinge C (PEG23)) [BCY19148]", "MEASURED": 0.0101}
{"BINDER": "Ac-CNSYTCYIKHILG[Agb]C (linker 1-6-15 via TATA; also: dimer: each monomer attached at C-terminus to central hinge A (PEG23)) [BCY19071]", "MEASURED": 0.024}
{"BINDER": "ACNAVLCSWARANSFCA (linker 2-7-16 via TATA; also: trimer: each monomer C-terminus attached to hinge B (PEG23)) [BCY17346]", "MEASURED": 0.012}
